Data credit: paper PMC7932521

Answer each item with its documented SI: selectivity index (CC50 / IC50).
Tested on: Leishmania infantum MHOM/MA(BE)/67/ITMAP263 amastigotes
Assay: L. infantum intracellular amastigote assay in PMM
Format: cell-based
Settings: CC50 / L. infantum IC50
# output: bare number, no unit

response.value for "Cn1ccc(C(=O)Nc2nc3ccc(C#N)cc3n2CC(F)(F)F)n1" (field: SI: selectivity index (CC50 / IC50)) = 1

Reported SI: selectivity index (CC50 / IC50) ( "Cn1nccc1C(=O)Nc1nc2ccc(C#N)cc2n1C1CCOCC1" ) = 1

// SI: selectivity index (CC50 / IC50) value for "N#Cc1ccc2nc(NC(=O)c3ccnn3C3CC3)n(CC(F)(F)F)c2c1" : 5

// field: SI: selectivity index (CC50 / IC50); key: "CC(C)(C)Cn1c(NC(=O)c2cccnc2)nc2ccc(C#N)cc21" ; value = 2

Quick note, SI: selectivity index (CC50 / IC50) for "CCCn1c(NC(=O)Cc2ccc(Cl)cc2)nc2ccc(F)cc21" landed at 4

Documented SI: selectivity index (CC50 / IC50) of "CCN(CC)CCCn1c(NC(=O)c2ccnn2C)nc2ccc(C#N)cc21" : 1

response.value for "CCCn1c(NC(=O)Cc2ccc(Cl)cc2)nc2cc(C(F)(F)F)ccc21" (field: SI: selectivity index (CC50 / IC50)) = 8

// SI: selectivity index (CC50 / IC50) lookup, molecule = "CC(C)(C)Cn1c(NC(=O)c2ccn(CCO)n2)nc2ccc(C#N)cc21" , result: 1

Measured SI: selectivity index (CC50 / IC50) of "CC(C)(C)Cn1c(NC(=O)c2ccccn2)nc2ccc(C#N)cc21" : 1

Reported SI: selectivity index (CC50 / IC50) for "N#Cc1ccc2nc(NC(=O)c3cnc(C(F)(F)F)nc3)n(CC(F)(F)F)c2c1" was 4

Data point: "Cn1nc(C(F)(F)F)cc1C(=O)Nc1nc2ccc(C#N)cc2n1CC(F)(F)F" ; SI: selectivity index (CC50 / IC50) = 2

Record summary for "N#Cc1ccc2nc(NC(=O)c3ccc(C(F)(F)F)nc3)n(CC(F)(F)F)c2c1" : reported SI: selectivity index (CC50 / IC50) = 2

In plain terms, "Cn1nccc1C(=O)Nc1nc2cncnc2n1CC(F)(F)F" has a documented SI: selectivity index (CC50 / IC50) of 2

Lookup result for "CCCn1c(NC(=O)Cc2ccc(F)cc2)nc2c(F)cccc21" ; measured SI: selectivity index (CC50 / IC50): 1

Query "Cn1nccc1C(=O)Nc1nc2ccc(C#N)cc2n1CC(F)(F)F" yields SI: selectivity index (CC50 / IC50) of 14

The reported value for "CN1CCC(n2c(NC(=O)c3ccnn3C)nc3ccc(C#N)cc32)CC1" in terms of SI: selectivity index (CC50 / IC50) is 3

What the record says about "N#Cc1ccc2nc(NC(=O)c3ccnc(C(F)(F)F)c3)n(CC(F)(F)F)c2c1" : SI: selectivity index (CC50 / IC50) is 5

Looking up "CCCn1c(NC(=O)Cc2ccc(F)cc2)nc2ccc(C#N)cc21" , I see its SI: selectivity index (CC50 / IC50) listed as 1

Entry under test: "Cn1nncc1C(=O)Nc1nc2ccc(C#N)cc2n1CC(F)(F)F" . Its SI: selectivity index (CC50 / IC50) was 2

For record "Cn1nccc1C(=O)Nc1nc2ccc(C#N)cc2n1CC(C)(C)O" the listed SI: selectivity index (CC50 / IC50) is 2

Looking up "Cn1cc(C(=O)Nc2nc3ccc(C#N)cc3n2CC(F)(F)F)cn1" , I see its SI: selectivity index (CC50 / IC50) listed as 2

The reported value for "COCCn1c(NC(=O)c2ccnn2C)nc2ccc(C#N)cc21" in terms of SI: selectivity index (CC50 / IC50) is 1

Just so you know, measured SI: selectivity index (CC50 / IC50) for "Cn1nccc1C(=O)Nc1nc2ccc(C#N)cc2n1CCF" came out at 1

Value of measured SI: selectivity index (CC50 / IC50) for the entry "Cn1nccc1C(=O)Nc1nc2cccnc2n1CC(F)(F)F" : 4

Measured SI: selectivity index (CC50 / IC50), "Cc1ccc(C(=O)Nc2nc3ccc(C#N)cc3n2CC(F)(F)F)cn1" : 2

Field SI: selectivity index (CC50 / IC50) (entry "Cn1nccc1C(=O)Nc1nc2ccc(C#N)cc2n1CC(F)F" ) reads 3

// SI: selectivity index (CC50 / IC50) lookup, molecule = "CCCn1c(NC(=O)Cc2ccc(Cl)cc2)nc2cc(F)ccc21" , result: 5

Measured SI: selectivity index (CC50 / IC50) of "Cn1nccc1C(=O)Nc1nc2ccc(C#N)cc2n1C1CC1" : 2

// SI: selectivity index (CC50 / IC50) lookup, molecule = "Cn1nccc1C(=O)Nc1nc2cccnc2n1CC(C)(C)C" , result: 4

# molecule "CCCn1c(NC(=O)Cc2ccc(F)cc2)nc2ccccc21" ; its SI: selectivity index (CC50 / IC50) = 2

Entry under test: "COc1ccc(C(=O)Nc2nc3ccc(C#N)cc3n2CC(F)(F)F)cn1" . Its SI: selectivity index (CC50 / IC50) was 5

Lab book: SI: selectivity index (CC50 / IC50) of "CCCn1c(NC(=O)Cc2ccc(F)cc2)nc2cc(F)c(F)cc21" noted as 29

Just so you know, measured SI: selectivity index (CC50 / IC50) for "Cn1nccc1C(=O)Nc1nc2ccc(C#N)cc2n1CC(C)(C)C" came out at 7

The recorded SI: selectivity index (CC50 / IC50) for entry "CC(C)(C)Cn1c(NC(=O)c2ccn[nH]2)nc2ccc(C#N)cc21" equals 1

====

Assignment: determine reported pIC50 for the given molecules.
Target: 5-HT2B (Homo sapiens, UniProt P41595)
Construct: expressed in transfected cells; host or cells: CHO
Sequence (P41595 whole entry): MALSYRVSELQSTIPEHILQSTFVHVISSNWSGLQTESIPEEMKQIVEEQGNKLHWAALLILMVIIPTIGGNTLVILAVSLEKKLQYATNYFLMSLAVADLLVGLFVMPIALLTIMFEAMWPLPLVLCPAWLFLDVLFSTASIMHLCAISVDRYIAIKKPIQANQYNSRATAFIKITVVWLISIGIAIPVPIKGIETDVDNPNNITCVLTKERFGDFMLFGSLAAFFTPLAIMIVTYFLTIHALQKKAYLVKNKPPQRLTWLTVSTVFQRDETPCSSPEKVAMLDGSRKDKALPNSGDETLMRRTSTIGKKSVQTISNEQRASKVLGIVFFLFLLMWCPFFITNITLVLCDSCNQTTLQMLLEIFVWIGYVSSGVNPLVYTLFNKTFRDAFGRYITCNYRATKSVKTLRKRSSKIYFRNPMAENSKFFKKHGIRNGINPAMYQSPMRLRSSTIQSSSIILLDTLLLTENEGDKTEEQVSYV
Experiment: Bioprofiling 6pt Antag 5-HT2B CHO
Format: cell-based
Conditions: antagonist readout vs Serotonin (5-HT)
pIC50: −log10 of the molar value.

The molecule identified as "Cn1nccc1C(=O)Nc1nc2ccc(C#N)cc2n1CC(F)(F)F" registered its pIC50 at < 5.00

Record "Cn1nccc1C(=O)Nc1nc2ccc(C#N)cc2n1CC(C)(C)C" . Reported pIC50: < 5.00

response.value for "N#Cc1ccc2nc(NC(=O)c3ccnc(C(F)(F)F)c3)n(CC(F)(F)F)c2c1" (field: pIC50) = < 5.00

So for "COc1ccc(C(=O)Nc2nc3ccc(C#N)cc3n2CC(F)(F)F)cn1" , the logged pIC50 turned out to be < 5.00

# pIC50 of "Cn1nc(C(F)(F)F)cc1C(=O)Nc1nc2ccc(C#N)cc2n1CC(F)(F)F" = < 5.00

Lab note: "N#Cc1ccc2nc(NC(=O)c3ccc(C(F)(F)F)nc3)n(CC(F)(F)F)c2c1" gave pIC50 of < 5.00

====

Assay: Kinetic solubility
Assay type: physicochemical
Conditions: PBS buffer pH 7.4, aqueous buffer, kinetic from dmso stock; PBS pH 7.4; read-out: KS PBS - pH7.4
experimental_readout: log10 solubility kinetic at 24 h (log10 of the value in µg/mL)
For clarity, the numbers are log10 values of solubility kinetic at 24 h expressed in µg/mL.

Item: "N#Cc1ccc2nc(NC(=O)c3ccnc(C(F)(F)F)c3)n(CC(F)(F)F)c2c1" | log10 solubility kinetic at 24 h: -0.39

log10 solubility kinetic at 24 h reported for this compound "Cn1nccc1C(=O)Nc1nc2cncnc2n1CC(F)(F)F" : 1.81

compound "N#Cc1ccc2nc(NC(=O)c3ccc(C(F)(F)F)nc3)n(CC(F)(F)F)c2c1" , log10 solubility kinetic at 24 h observed: -0.39

The recorded log10 solubility kinetic at 24 h for entry "COc1ccc(C(=O)Nc2nc3ccc(C#N)cc3n2CC(F)(F)F)cn1" equals -0.42

Reported log10 solubility kinetic at 24 h ( "Cn1nc(C(F)(F)F)cc1C(=O)Nc1nc2ccc(C#N)cc2n1CC(F)(F)F" ) = -0.38

Sure, the documented log10 solubility kinetic at 24 h for "Cn1nccc1C(=O)Nc1nc2ccc(C#N)cc2n1CC(C)(C)C" is 0.49

Summary for this compound, "COCCn1c(NC(=O)c2ccnn2C)nc2ccc(C#N)cc21" : log10 solubility kinetic at 24 h is 0.78

Consider "Cn1nccc1C(=O)Nc1nc2ccc(C#N)cc2n1CC(F)(F)F" . Its measured log10 solubility kinetic at 24 h is 0.96

====

Would you kindly list CC50 for each of these compounds?
Test: HEPG2 cytotoxicity
Format: cell-based
Details: human, HepG2 cells; S1 Data
Source text: Supplement pntd.0009196.s001.xlsx, sheet "Complete Dataset" | column: HEPG2 CC50 (uM)
Give the value in nM but do not write nM after it.

The reported value for "COc1ccc(C(=O)Nc2nc3ccc(C#N)cc3n2CC(F)(F)F)cn1" in terms of CC50 is 2600

According to the records, this compound "CC(C)(C)Cn1c(NC(=O)c2ccn[nH]2)nc2ccc(C#N)cc21" displays CC50 of 16000

Input "Cn1nc(C(F)(F)F)cc1C(=O)Nc1nc2ccc(C#N)cc2n1CC(F)(F)F" . Output CC50: 1130
